biological target: dUTP pyrophosphatase (Plasmodium falciparum 3D7, UniProt Q8II92, I117A); assay: Inhibition of recombinant Plasmodium falciparum dUTPase I117A mutant expressed in Escherichia coli BL21(DE3) cells using dUTP as substrate by spectrophotometric analysis
Sequence (Q8II92 whole entry I117A): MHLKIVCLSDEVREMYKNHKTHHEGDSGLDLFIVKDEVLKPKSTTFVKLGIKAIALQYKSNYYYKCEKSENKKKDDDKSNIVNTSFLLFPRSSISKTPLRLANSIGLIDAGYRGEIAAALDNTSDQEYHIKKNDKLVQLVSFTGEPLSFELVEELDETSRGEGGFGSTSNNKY
pKi: −log10 of the molar value.
Label MET when pKi is at or above 6; anything below gets NOT MET.

{"Molecule": "O=c1ccn([C@H]2C[C@H](F)[C@@H](COC(c3ccccc3)(c3ccccc3)c3ccccc3)O2)c(=O)[nH]1", "Tgt": "dUTP pyrophosphatase (Plasmodium falciparum 3D7, UniProt Q8II92, I117A)", "Label Value": "NOT MET"}
{"Molecule": "O=c1ccn(COCCOC(c2ccccc2)(c2ccccc2)c2ccccc2)c(=O)[nH]1", "Tgt": "dUTP pyrophosphatase (Plasmodium falciparum 3D7, UniProt Q8II92, I117A)", "Label Value": "NOT MET"}
{"Molecule": "O=c1ccn(CCCNC(c2ccccc2)(c2ccccc2)c2ccccc2)c(=O)[nH]1", "Tgt": "dUTP pyrophosphatase (Plasmodium falciparum 3D7, UniProt Q8II92, I117A)", "Label Value": "MET"}
{"Molecule": "O=c1ccn(CCC(CO)CNC(c2ccccc2)(c2ccccc2)c2ccccc2)c(=O)[nH]1 (centres undefined)", "Tgt": "dUTP pyrophosphatase (Plasmodium falciparum 3D7, UniProt Q8II92, I117A)", "Label Value": "MET"}
{"Molecule": "O=c1ccn([C@H]2C=C[C@@H](COC(c3ccccc3)(c3ccccc3)c3ccccc3)O2)c(=O)[nH]1", "Tgt": "dUTP pyrophosphatase (Plasmodium falciparum 3D7, UniProt Q8II92, I117A)", "Label Value": "NOT MET"}
{"Molecule": "O=c1ccn(CCCCCCNC(c2ccccc2)(c2ccccc2)c2ccccc2)c(=O)[nH]1", "Tgt": "dUTP pyrophosphatase (Plasmodium falciparum 3D7, UniProt Q8II92, I117A)", "Label Value": "NOT MET"}

FYI, the data here is from ChEMBL document CHEMBL1806407.
